Reference source for all entries: patent US20170212130A1

In this section, each of the binders is paired with its reported pKd.
# test_target: T1, GFP-His6 (eGFP) (Aequorea victoria, UniProt P42212 2-238 = GFP)
# T1 construct: SPR and bead assays speak only of recombinant GFP or eGFP; also called recombinant GFP; A. victoria (Av) GFP
# measurement_description: SPR, GFP immobilized, Langmuir fit; unit inferred
pKd here is simply -log10 of the concentration when that concentration is written in mol/L.

>>> value_reported("LaG-14 (VHH) VHH: QVQLVESGGGLVQAGGSLRLSCAASGRTYSISAMGWFRQAPGKEREFVAGISRSGGTTYYADPVKGRFTISRDNAKNTVYLQMNSLKPEDTAVYYCAARARGWTTFPAREIEYDYWGQGTQVTV")
8.72
>>> value_reported("LaG-17 (VHH) VHH: DVQLVESGGGLVQAGGSLRLSCAASGRTISMAAMSWFRQAPGKEREFVAGISRSAGSAVHADSVKGRFTISRDNTKNTLYLQMNSLKAEDTAVYYCAVRTSGFFGSIPRTGTAFDYWGQGTQVTVS")
7.32
>>> value_reported("LaG-10 (VHH) VHH: QVQLVESGGGLVQAGDSLQLSCAFSGGTFSTYAMGWFRQAPGKEREFVGGISRSGATTNYEDSVKGRFTISKDNTKNTVYLQLNSLKPEDTAVYYCAARNNILPVTTIDKYEYWGQGTQVTV")
7.01

Here is the next item to consider.
[in] Identify measured pKd associated with LaG-6 (VHH) VHH: QVQLVESGGGLVQAGGSLRLSCAASGRTFSTSAMAWFRQAPGKEREFAAGITWISSSTYYTDSVKGRFTISRDNAKNTVYLQMNSLKPEDTAVYYCAAKSEGYFGFPRVENEYPYWGQGTQVTV
[out] 6.51
